target: T1, recombinant human CFD, His-tagged (human, UniProt P00746 26-253); experiment: SPR MX96
T1 construct: also called rhCFD-His
T1 sequence (P00746 26-253 limits assumed): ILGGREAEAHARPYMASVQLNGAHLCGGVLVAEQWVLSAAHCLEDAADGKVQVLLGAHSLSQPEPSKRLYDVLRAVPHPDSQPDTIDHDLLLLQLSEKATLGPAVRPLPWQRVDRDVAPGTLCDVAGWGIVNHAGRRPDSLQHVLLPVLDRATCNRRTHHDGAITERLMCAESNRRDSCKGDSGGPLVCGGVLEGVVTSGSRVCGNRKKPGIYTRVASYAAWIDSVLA
Quantity: Kd (nM)
Respond numerically; units are nM and should not be typed.

{"columns": ["Binder", "Measured Result"],
 "data": [
  ["KCD036 (antibody, V domains shown, chimeric) VH: EVQLQQSGPELVKPGASMKISCKASGYSFTGYTMTWVKQSHGKNLEWIGLINPYNGGTNYNQKFKGKATFTVDKSSSTAYMELLSLTSEDSAVYYCARRHYGSSWDYWGQGTTLTVSS VL: DIKLTQSPSSMYASLGERVTITCKASQDINTYLSWFQQKPGKSPKTLIYRANRLVDGVPSRFSGSGSGQDYSLTISSLEYEEMGIYYCLQYDEFPYTFGGGTKLEIK", 29],
  ["KCD003 (antibody, V domains shown, chimeric) VH: EVQLQQSRPELVKPGASVKIFCKASGYTFTDYYMNWMRQRHGETLEWIGDINPNNGDPSYNQKFKDKATLTVDKSSSTASMELRSLTSDDSAVYYCAREGPSFAYWGQGTLVTVSA VL: DVLMTQTPLSLPVSLGEQASISCRSSQTIVHSNGDTYLEWYLQKPGQSPNLLIYKVSNRFSGVPDRFSGSGSGTDFTLKISRVEAEDLGVYYCFQGSHVPPTFGGGTKLEIK", 0.81]
]}

Name the reported Kd value associated with the binder KCD014 (antibody, V domains shown) VH: EVKLVESGGGLVQPGGSLKLSCAASGFTFSSYIMSWVRQTPEKRLEWVAYITNGGGNTYYPDTIKGRFTISRDNAKNTLYLQMSSLKSEDTAMYYCARHGTGYAMDYWGQGTSVTVSS VL: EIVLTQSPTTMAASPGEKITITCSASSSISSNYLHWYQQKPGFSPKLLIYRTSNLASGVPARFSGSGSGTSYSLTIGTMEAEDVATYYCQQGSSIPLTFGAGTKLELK 20
